# target-system: T1, recombinant human insulin receptor (human, UniProt P06213-2 28-944, limits assumed)
# T1 construct: Amine-coupled to a CM5 chip (8300 RU); also called IR
# T1 sequence (P06213 other isoform, or with tags, fused parts or gaps limits assumed): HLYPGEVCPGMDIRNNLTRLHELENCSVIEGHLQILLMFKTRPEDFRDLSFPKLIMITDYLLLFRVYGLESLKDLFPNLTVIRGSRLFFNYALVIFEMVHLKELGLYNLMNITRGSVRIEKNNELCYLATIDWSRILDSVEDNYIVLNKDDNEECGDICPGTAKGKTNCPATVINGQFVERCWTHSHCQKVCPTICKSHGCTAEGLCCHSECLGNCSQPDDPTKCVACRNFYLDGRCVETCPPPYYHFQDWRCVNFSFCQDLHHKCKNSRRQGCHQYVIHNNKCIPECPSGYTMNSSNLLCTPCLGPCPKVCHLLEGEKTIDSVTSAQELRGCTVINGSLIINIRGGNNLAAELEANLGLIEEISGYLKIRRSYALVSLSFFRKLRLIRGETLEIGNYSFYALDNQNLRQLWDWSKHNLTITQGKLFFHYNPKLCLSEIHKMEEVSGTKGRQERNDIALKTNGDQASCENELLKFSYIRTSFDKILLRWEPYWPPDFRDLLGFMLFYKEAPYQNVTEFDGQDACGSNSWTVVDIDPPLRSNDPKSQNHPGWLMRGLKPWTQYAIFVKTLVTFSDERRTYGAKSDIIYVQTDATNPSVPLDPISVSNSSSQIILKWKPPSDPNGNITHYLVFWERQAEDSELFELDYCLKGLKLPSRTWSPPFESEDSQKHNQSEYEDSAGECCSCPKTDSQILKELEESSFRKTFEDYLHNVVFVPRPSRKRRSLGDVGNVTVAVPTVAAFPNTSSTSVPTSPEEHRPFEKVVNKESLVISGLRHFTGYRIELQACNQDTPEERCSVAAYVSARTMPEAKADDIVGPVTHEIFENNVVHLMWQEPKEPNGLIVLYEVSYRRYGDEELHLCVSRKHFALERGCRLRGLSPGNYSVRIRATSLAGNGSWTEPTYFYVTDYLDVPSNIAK
# procedure-text: SPR (BIAcore); IR amine-coupled to chip, clone at 10 µM, signal as % of insulin signal
value-type: % IR Binding at 10 µM (%)
Field: numeric (%). Do not append units.

Asked: Tell me its % IR Binding at 10 µM given 338A06 (designed binder, Optimized derivative of 218C04; also called clone 338A06; parent clone 338A06) VSDVPRDLEVVAATPTSLLISWSARLKVARYYRITYGETGGNSPVQEFTVPKNVYTATISGLKPGVDYTITVYAVTKMRDYRPISINYRTHHHHHH as the entry.
Given back: 2

Asked: Tell me its % IR Binding at 10 µM given 353F10 (designed binder, Optimized derivative of 218C04) VSDVPRDLEVVAATPTSLLISWPTHYKVARYYRITYGETGGNSPVQEFTVPKHTYTATISGLKPGVDYTITVYAVTTTKGLRHYGPISINYRTHHHHHH as the entry.
Given back: 1

Asked: Tell me its % IR Binding at 10 µM given 354A10 (designed binder, Optimized derivative of 218C04) VSDVPRDLEVVAATPTSLLISWSNRLVVKRYYRITYGETGGNSPVQEFTVPHQMKTATISGLKPGVDYTITVYAVTPGGYSGRNYGPISINYRTHHHHHH as the entry.
Given back: 1

Asked: Tell me its % IR Binding at 10 µM given 338A05 (designed binder, Optimized derivative of 218C04) VSDVPRDLEVVAATPTSLLISWSDSLKVSRYYRITYGETGGNSPVQEFTVPKQYHTATISGLKPGVDYTITVYAVTPSNIIGRHYGPISINYRTHHHHHH as the entry.
Given back: 45

These entries and their values trace back to patent US20130310317A1.
